test: Metabolic stability in rat hepatocytes assessed as intrinsic clearance measured per 10^6 cells at 100 uM incubated upto 60 mins by UPLC-MS/MS analysis; format: ADME, cell-based, Hepatocyte; details: read-out: CLH
observable: hepatocyte CLint at 100 µM

Examples from the recorded data:
COc1cc(-c2cc(F)cc(C(C)C)c2CC(=O)NS(=O)(=O)c2cnn(C3CC3)c2)ccn1 ... < 8 µL/min/1e6 cells
CC(C)c1c(F)ccc2c1CC(=O)NS(=O)(=O)c1cn(nc1F)C(C)(C)COc1cc-2ccn1 ... < 10.3 µL/min/1e6 cells

Ask: Provide one value: measured hepatocyte CLint at 100 µM of CC(C)c1cc(F)cc2c1CC(=O)NS(=O)(=O)c1cnn(c1)C(C)(C)COc1cc-2ccn1
Result: < 8 µL/min/1e6 cells
